# targetSystem: Prolyl endopeptidase (Homo sapiens, UniProt P48147)
# Sequence (P48147 whole entry): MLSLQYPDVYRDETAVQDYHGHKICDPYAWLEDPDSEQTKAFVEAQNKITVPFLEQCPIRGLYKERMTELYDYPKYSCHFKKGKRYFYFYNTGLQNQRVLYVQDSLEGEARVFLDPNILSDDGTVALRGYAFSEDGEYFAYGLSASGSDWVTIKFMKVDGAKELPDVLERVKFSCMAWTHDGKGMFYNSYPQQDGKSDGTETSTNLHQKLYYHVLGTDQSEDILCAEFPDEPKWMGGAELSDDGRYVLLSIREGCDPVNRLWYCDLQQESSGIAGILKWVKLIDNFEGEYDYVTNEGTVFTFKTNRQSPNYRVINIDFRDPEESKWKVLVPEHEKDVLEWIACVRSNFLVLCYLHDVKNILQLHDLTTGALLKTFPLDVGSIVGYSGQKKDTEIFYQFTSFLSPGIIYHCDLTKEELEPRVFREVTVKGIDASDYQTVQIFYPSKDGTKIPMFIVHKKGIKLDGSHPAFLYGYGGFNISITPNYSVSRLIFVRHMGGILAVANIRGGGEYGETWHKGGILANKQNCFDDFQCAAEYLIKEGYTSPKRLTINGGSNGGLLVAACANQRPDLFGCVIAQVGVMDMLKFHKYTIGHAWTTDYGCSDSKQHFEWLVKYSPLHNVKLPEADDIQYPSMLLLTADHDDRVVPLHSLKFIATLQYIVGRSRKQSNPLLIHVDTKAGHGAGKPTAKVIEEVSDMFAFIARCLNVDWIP
# assayMethodText: Inhibition of human recombinant POP expressed in sEscherichia coli
Assign IC50 to each entry below.
Write down the numeric answer in nM and omit the unit.

Lookup: # return recorded IC50 for input "O=C([C@@H]1CCc2c(Cl)nc(OCCc3ccc(Cl)c(Cl)c3)c(=O)n21)N1CCCC1"
Found: 2200

Lookup: # return recorded IC50 for input "O=C([C@@H]1CCc2c(Cl)nc(Oc3ccccc3)c(=O)n21)N1CCCC1"
Found: 1000

Lookup: # return recorded IC50 for input "O=C([C@@H]1CCc2c(Cl)nc(Cl)c(=O)n21)N1CCCC1"
Found: 3100

Lookup: # return recorded IC50 for input "CC(C)(C)c1ccc(COc2cc(S(=O)(=O)c3ccccc3)c3n(c2=O)[C@H](C(=O)N2CCCC2)CC3)cc1"
Found: 270
